The origin of these recorded values is patent US20060111289A1.

Tested on: human platelets
Assay: Platelet aggregation in human platelet-rich plasma
Type: cell-based
Conditions: peptide inhibitors 30 & 100 μM
recordedEndpoint: Inhibition (%) Of Platelet Aggregation, Arachidonic Acid (AA) 0.3 mM

- orderedResidues: "KDFIHKQGVALQTMKQELINLVKELVKPQIEAVADFSGLL (listed as Homo sapiens) [P192, reference compound]"
  reportedResult: "No effect"
- orderedResidues: "AADIIIGHLCIRHE (listed as Homo sapiens) [P149b]"
  reportedResult: "100%"
- orderedResidues: "MTPVNPGV (listed as Homo sapiens) [P149c]"
  reportedResult: "No effect"
- orderedResidues: "LSEDKLLACGEG (listed as Homo sapiens) [P149a]"
  reportedResult: "No effect"

###

Kindly state % Inhibition Of Activity: Uterine Growth for each of the entries shown.
Test system: immature mouse uterine growth
Experiment: E2-activated immature mouse uterine growth assay
Type: in vivo
Design: concentration or dose not given beside the values
Details: mouse, in vivo
Remember to put the unit after the number in your answer.

Ask: Can you look up the measured % Inhibition Of Activity: Uterine Growth of KDFIHKQGVALQTMKQELINLVKELVKPQIEAVADFSGLL (listed as Homo sapiens) [P192, reference compound] for me?
Result: 0%

Ask: Can you look up the measured % Inhibition Of Activity: Uterine Growth of LSEDKLLACGEG (listed as Homo sapiens) [P149a] for me?
Result: 28%

Ask: Can you look up the measured % Inhibition Of Activity: Uterine Growth of AADIIIGHLCIRHE (listed as Homo sapiens) [P149b] for me?
Result: 22%

Ask: Can you look up the measured % Inhibition Of Activity: Uterine Growth of HPEAKRMPCAEDYLSVVLNQLCVLEHKTPVSDRV (listed as Homo sapiens) [P263, reference compound] for me?
Result: 0%

Ask: Can you look up the measured % Inhibition Of Activity: Uterine Growth of MTPVNPGV (listed as Homo sapiens) [P149c] for me?
Result: 42%

###

Kindly state % Inhibition Of Activity: Platelet Agg. Coll for each of the entries shown.
System: human platelets
Experiment: Platelet aggregation in human platelet-rich plasma
Format: cell-based
Parameters: concentration or dose not given beside the values
Conditions: collagen-induced
Give the quantity in %, number only.

Ask: Can you look up the measured % Inhibition Of Activity: Platelet Agg. Coll of MTPVNPGV (listed as Homo sapiens) [P149c] for me?
Result: 0

Ask: Can you look up the measured % Inhibition Of Activity: Platelet Agg. Coll of HPEAKRMPCAEDYLSVVLNQLCVLEHKTPVSDRV (listed as Homo sapiens) [P263, reference compound] for me?
Result: 0

Ask: Can you look up the measured % Inhibition Of Activity: Platelet Agg. Coll of LSEDKLLACGEG (listed as Homo sapiens) [P149a] for me?
Result: 0

Ask: Can you look up the measured % Inhibition Of Activity: Platelet Agg. Coll of KDFIHKQGVALQTMKQELINLVKELVKPQIEAVADFSGLL (listed as Homo sapiens) [P192, reference compound] for me?
Result: 0

Ask: Can you look up the measured % Inhibition Of Activity: Platelet Agg. Coll of AADIIIGHLCIRHE (listed as Homo sapiens) [P149b] for me?
Result: 90

###

Tested on: human platelets
Assay: Platelet aggregation in human platelet-rich plasma
Format: cell-based
Set-up: concentration or dose not given beside the values
Conditions: ADP-induced
recordedEndpoint: % Inhibition Of Activity: Platelet Agg. ADP (%)
Give the quantity in %, number only.

Ask: Requested read-out % Inhibition Of Activity: Platelet Agg. ADP, target or system human platelets, entry LSEDKLLACGEG (listed as Homo sapiens) [P149a]
Result: 40

Ask: Requested read-out % Inhibition Of Activity: Platelet Agg. ADP, target or system human platelets, entry HPEAKRMPCAEDYLSVVLNQLCVLEHKTPVSDRV (listed as Homo sapiens) [P263, reference compound]
Result: 0

Ask: Requested read-out % Inhibition Of Activity: Platelet Agg. ADP, target or system human platelets, entry AADIIIGHLCIRHE (listed as Homo sapiens) [P149b]
Result: 95

Ask: Requested read-out % Inhibition Of Activity: Platelet Agg. ADP, target or system human platelets, entry KDFIHKQGVALQTMKQELINLVKELVKPQIEAVADFSGLL (listed as Homo sapiens) [P192, reference compound]
Result: 0

Ask: Requested read-out % Inhibition Of Activity: Platelet Agg. ADP, target or system human platelets, entry MTPVNPGV (listed as Homo sapiens) [P149c]
Result: 0
